From: PubChem BioAssay

# System: Fibrinogen (Alexa647-labelled)
# procedure_summary: fibrinogen binders on compound microarrays, profiling panel, artefact control for SMM control-protein annotation, biochemical, small-molecule microarray, 635/667 nm fluorescence (AID 1131);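 also: z-score merges 667 nm fluorescence with per-spot signal-to-noise over triplicate slides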
# study_conditions: fibrinogen-A647 binding fluorescence, higher = more signal
composite z-score of 0.2 or higher: 1.0. Under 0.2: 0.0.

Could you please find out whether `C=CCN1C(=O)[C@@]2(O[C@@H](CCn3cc([C@H](O)c4ccccc4)nn3)[C@H]([Si](C)(C)c3ccc(OC)cc3)[C@H]2C)c2ccccc21` has composite z-score that meets 0.2 or exceeds it?
1.0

Could you please find out whether `CCOC(=O)C1=CC[C@@H](c2ccccc2C(F)(F)F)N(S(=O)(=O)c2ccc(C)cc2)C1` has composite z-score that meets 0.2 or exceeds it?
1.0

Could you please find out whether COc1ccc(C(O)C2C=CC3C(=O)N(c4ccccc4)C(=O)C3N2Nc2ccc(C#N)cc2)c2ccccc12 (stereo unspecified) has composite z-score that meets 0.2 or exceeds it?
1.0

Could you please find out whether COC(=O)C1(Cc2ccccc2)C=C2C(=C(C(C)C)C(=O)C2C)CN1 (stereo unspecified) has composite z-score that meets 0.2 or exceeds it?
0.0

Could you please find out whether `CC(C)N1C(=O)[C@@]2(c3ccc([N+](=O)[O-])cc3)CC(=O)N(C3CCCCC3)[C@@H]2c2ccc(CO)cc21` has composite z-score that meets 0.2 or exceeds it?
0.0

Could you please find out whether `COCCOC(=O)N1C(=O)[C@@]2(c3cc(C#CC4(O)CCCCCC4)ccc31)[C@H](C(N)=O)[C@H]1C(=O)O[C@H](c3ccccc3)[C@H](c3ccccc3)N1[C@@H]2c1ccc(O)cc1` has composite z-score that meets 0.2 or exceeds it?
1.0

Could you please find out whether CC(C)N1CC=CC23O[C@@H]4C=CCOC(=O)[C@@H]4[C@H]2C(=O)N(C(C)CO)[C@@H]3C1=O (stereo partly specified) has composite z-score that meets 0.2 or exceeds it?
0.0

Could you please find out whether `CC(C)NC(=O)[C@@]1(C)c2ccccc2C(=O)N(C(C)C)[C@H]1c1ccc(CO)cc1` has composite z-score that meets 0.2 or exceeds it?
0.0

Could you please find out whether CCOc1cc(C(O)C2C=CC3C(=O)N(C4CCCCC4)C(=O)C3N2Nc2ccc(OC)cc2)ccc1O (stereo unspecified) has composite z-score that meets 0.2 or exceeds it?
1.0

Could you please find out whether `C=CCNC(=O)[C@@H]1[C@H]2C(=O)O[C@H](c3ccccc3)[C@H](c3ccccc3)N2[C@H](c2ccc(OCCO)cc2)[C@@]12C(=O)N(C(=O)OCCOC)c1ccc(C#CC3=CCCCC3)cc12` has composite z-score that meets 0.2 or exceeds it?
1.0

Could you please find out whether `C=CC[C@H](OC(=O)Nc1ccc(OC)cc1)c1ccc(O)c2ccccc12` has composite z-score that meets 0.2 or exceeds it?
1.0

Could you please find out whether `COC(=O)Cn1c(C(=O)N2CCCC2)cc2c1C[C@H]1CN(C(=O)c3ccccc3)[C@@](Cc3ccc(F)cc3)(C(=O)OC)[C@@H]21` has composite z-score that meets 0.2 or exceeds it?
0.0

Could you please find out whether `CN(C)C(=O)[C@]1(CCC(=O)OC(C)(C)C)N=C(c2ccc(OCCCO)cc2)O[C@@H]1c1ccccc1` has composite z-score that meets 0.2 or exceeds it?
1.0

Could you please find out whether CC(C)C(CO)N1C(=O)[C@]2(C)C3C(=O)OCCC/C=C\[C@H]3OC23C=CCN(c2ccc(Cl)cc2)C(=O)[C@@H]13 (stereo partly specified) has composite z-score that meets 0.2 or exceeds it?
0.0

Could you please find out whether `CC(=O)NCCCC[C@@H]1NC(=O)[C@@H]2C[C@H](C(=O)O)[C@H](c3ccc(O)cc3)N2C1=O` has composite z-score that meets 0.2 or exceeds it?
0.0

Could you please find out whether `COc1ccc([Si](C)(C)[C@@H]2[C@@H](CCn3cc([C@H](O)c4ccccc4)nn3)O[C@]3(C(=O)N(Cc4ccc(N5CCOC5=O)cc4)c4ccccc43)[C@H]2C)cc1` has composite z-score that meets 0.2 or exceeds it?
1.0

Could you please find out whether `CCOC(=O)[C@@H]1[C@@H]2C(=O)N(CC)C(=O)[C@@H]2C[C@@H]1Sc1ccccc1` has composite z-score that meets 0.2 or exceeds it?
1.0

Could you please find out whether COC(=O)C1(Cc2ccccc2)C=C2C(=C(c3ccccc3)C(=O)C2C)CN1 (stereo unspecified) has composite z-score that meets 0.2 or exceeds it?
0.0

Could you please find out whether `CN(C)CCCNC(=O)[C@@H]1c2ccccc2C(=O)N(Cc2ccc(OC(F)(F)F)cc2)[C@H]1c1ccc(CO)cc1` has composite z-score that meets 0.2 or exceeds it?
0.0

Could you please find out whether O=C1NC(=O)C2C1C=CC(C(O)c1cc(C(F)(F)F)cc(C(F)(F)F)c1)N2Nc1ccc(Cl)cc1Cl (stereo unspecified) has composite z-score that meets 0.2 or exceeds it?
0.0

Could you please find out whether `COCCCNC(=O)[C@]1(CCC(=O)OC(C)(C)C)N=C(c2ccc(OCCCO)cc2)O[C@@H]1c1ccccc1` has composite z-score that meets 0.2 or exceeds it?
1.0

Could you please find out whether `COCCCNC(=O)[C@@]1(Sc2ccc(C)cc2)CC(=O)N(C2Cc3ccccc3C2)[C@@H]1c1ccc(CO)cc1I` has composite z-score that meets 0.2 or exceeds it?
0.0

Could you please find out whether `O=C1O[C@H](c2ccccc2)[C@H](c2ccccc2)N2[C@H]1[C@@H](C(=O)O)[C@]1(C(=O)Nc3ccccc31)[C@H]2c1ccc(O)cc1` has composite z-score that meets 0.2 or exceeds it?
0.0

Could you please find out whether `O=C(N1CCCCC1)[C@@]1(Cc2ccccc2)COC(c2ccc(OCCCO)cc2)=N1` has composite z-score that meets 0.2 or exceeds it?
1.0

Could you please find out whether `CC(C)C(=C=CC[C@H](O)c1ccc(OCCO)cc1)C[C@H](O)c1cc(Cl)cc(Cl)c1O` has composite z-score that meets 0.2 or exceeds it?
0.0

Could you please find out whether CN1C2C=C(CCCO)C(C3C(=O)N(C(N)=O)C(=O)C32)C1c1cccs1 (stereo unspecified) has composite z-score that meets 0.2 or exceeds it?
0.0

Could you please find out whether CN1C(=O)C2C=CC(C(O)C3CCCCC3)N(N3CCCCC3)C2C1=O (stereo unspecified) has composite z-score that meets 0.2 or exceeds it?
1.0

Could you please find out whether `C=C[C@@H](COC(C)=O)NS(=O)(=O)c1ccc(Br)cc1` has composite z-score that meets 0.2 or exceeds it?
0.0

Could you please find out whether CCOc1cc(C(O)C2C=CC3C(=O)N(C)C(=O)C3N2N2CCCCC2)ccc1O (stereo unspecified) has composite z-score that meets 0.2 or exceeds it?
1.0

Could you please find out whether CC(C)C(O)C1C=CC2C(=O)N(C)C(=O)C2N1Nc1ccccc1 (stereo unspecified) has composite z-score that meets 0.2 or exceeds it?
1.0

###

# System: Fibrinogen (Alexa647-labelled)
# procedure_summary: fibrinogen binders on compound microarrays, profiling panel, artefact control for SMM control-protein annotation, biochemical, small-molecule microarray, 635/667 nm fluorescence (AID 1131);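 also: z-score merges 667 nm fluorescence with per-spot signal-to-noise over triplicate slides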
# study_conditions: fibrinogen-A647 binding fluorescence, higher = more signal
Can you tell me composite z-score for the items I'm about to list?
Reply briefly: the number, and no unit.

Please report the recorded composite z-score for CC(C)OC(=O)CC(=O)CC(O)c1cccc(C#N)c1 (stereo not given) .
0.974

Please report the recorded composite z-score for O=C1NC(=O)C2C1C=CC(C(O)c1c(F)cccc1Cl)N2Nc1ccccn1 (stereo not given) .
0.776

Please report the recorded composite z-score for `CCOC(=O)C1=C[C@@H](c2ccccc2)N(S(=O)(=O)c2ccc(C)cc2)[C@H]1c1cccc(Cl)c1` .
0.612

Please report the recorded composite z-score for `NCCCCCCNC(=O)[C@H]1C[C@H]2C(=O)N[C@@H](Cc3ccccc3)C(=O)N2[C@H]1c1ccc(O)cc1` .
0.999

Please report the recorded composite z-score for O=C1NC(=O)C2C1C=CC(C(O)c1ccc(Br)cc1)N2Nc1ccccn1 (stereo not given) .
0.995

###

# procedure_summary: small-molecule microarray binders of probe aCHRDL2, primary screen, biochemical, biotinylated probe, 635/667 nm fluorescence (AID 1100)
# study_conditions: higher = more signal
composite z-score of 0.2 or higher: Fulfilled. Under 0.2: Not fulfilled.

Could you please find out whether `CN(C)CCCCNC(=O)[C@H]1C[C@H]2C(=O)N3CCC[C@H]3C(=O)N2[C@H]1c1ccc(O)cc1` has composite z-score that meets 0.2 or exceeds it?
Not fulfilled

Could you please find out whether `O=C1O[C@@H](c2ccccc2)[C@@H](c2ccccc2)N2[C@@H](c3ccccc3OCCO)[C@]3(C(=O)Nc4ccc(C#CCCO)cc43)[C@@H](C(=O)N3CCN(c4ncccn4)CC3)[C@H]12` has composite z-score that meets 0.2 or exceeds it?
Fulfilled

Could you please find out whether CC=CC(O)C1C=CC2C(=O)N(c3ccccc3)C(=O)C2N1Nc1ccc([N+](=O)[O-])cc1 (configuration not stated) has composite z-score that meets 0.2 or exceeds it?
Not fulfilled

Could you please find out whether `C=CCN1C(=O)[C@@]2(O[C@@H](CCn3cc([C@H](O)c4ccccc4)nn3)[C@H]([Si](C)(C)c3ccc(OC)cc3)[C@H]2C)c2ccccc21` has composite z-score that meets 0.2 or exceeds it?
Not fulfilled

Could you please find out whether CCOc1cc(C(O)C2C=CC3C(=O)N(C4CCCCC4)C(=O)C3N2Nc2ccc(OC)cc2)ccc1O (configuration not stated) has composite z-score that meets 0.2 or exceeds it?
Fulfilled

Could you please find out whether `COC(=O)[C@@]1(Cc2ccc(OC)cc2)[C@H]2c3cc(C(=O)N(C)C)n(CCc4c[nH]c5ccc(O)cc45)c3C[C@H]2CN1C(=O)c1ccccc1` has composite z-score that meets 0.2 or exceeds it?
Fulfilled

Could you please find out whether `CCOC(=O)C1=CC[C@@H](c2ccccc2C(F)(F)F)N(S(=O)(=O)c2ccc(C)cc2)C1` has composite z-score that meets 0.2 or exceeds it?
Fulfilled
